Assay: suppressors of polyglutamine aggregation in yeast, 75Q-TubH (AID 1616)
Settings: S. cerevisiae 75Q-TubH polyglutamine aggregation suppression; stronger effect = higher value
# label = Yes if aggregation suppression score >= 1 else No

Please tell me: is the compound `CC12CCC(CC1)C(C)(C)O2` at or over 1 in terms of aggregation suppression score? Yes

Does the reported aggregation suppression score for `COc1cc(C)c2c(=O)cc(-c3ccccc3)oc2c1` fall at or above the 1 mark? No

Could you please find out whether `Cc1ccc(/C(=C\CN2CCCC2)c2ccccn2)cc1` has aggregation suppression score that meets 1 or exceeds it? No

Could you tell me if the measured aggregation suppression score of `O=C(O)CN(CC(=O)O)Cc1cc2c(-c3ccccc3C(=O)O)c3cc(CN(CC(=O)O)CC(=O)O)c(=O)cc-3oc2cc1O` reaches 1 or more? No

Does `O=C(O)c1cc(O)ccc1O` have a reported aggregation suppression score of at least 1? No

Item `C[n+]1c2cc(N)ccc2cc2ccc(N)cc21` with aggregation suppression score of 1 or above? No

Is aggregation suppression score at least 1? Consider `NC1(C(=O)O)CCCC1` Yes

Reported aggregation suppression score at or above 1? `COc1cc2ccc(=O)oc2cc1O` Yes

Item `COc1ccc2cc([C@H](C)C(=O)O)ccc2c1` with aggregation suppression score of 1 or above? No

Check if aggregation suppression score >= 1 (inclusive). Item: `NC(N)=NCCCCN=C(N)N` Yes

Would you say `c1coc(CNc2ncnc3nc[nH]c23)c1` shows aggregation suppression score at minimum 1? No

Determine whether measured aggregation suppression score meets or exceeds 1 for `Cc1c(N)c(=O)n(-c2ccccc2)n1C` Yes

Say whether `NC(=O)c1ccc[n+]([C@@H]2O[C@H](COP(=O)([O-])OP(=O)(O)OC[C@H]3O[C@@H](n4cnc5c(N)ncnc54)[C@H](O)[C@@H]3O)[C@@H](O)[C@H]2O)c1` shows aggregation suppression score of 1 or more. Yes

Say whether `CC(C)=CCc1c2c(c3occ(-c4ccc(O)c(O)c4)c(=O)c3c1O)C=CC(C)(C)O2` shows aggregation suppression score of 1 or more. No

Decide: is the reported value of aggregation suppression score for `NC(N)=NCCC[C@@H](NC(=O)[C@@H](N)Cc1ccc(O)cc1)C(=O)O` equal to or greater than 1? Yes

Dear colleague, could you confirm whether CC(N)C(=O)NC(Cc1ccccc1)C(=O)O (stereo not given) has aggregation suppression score at or above 1? Yes

I'd appreciate it if you could say whether `CCOc1ccc2c(c1)C(C)=CC(C)(C)N2` has aggregation suppression score at least equal to 1. No

Reported aggregation suppression score at or above 1? CC(C)NCC(O)COc1cccc2[nH]ccc12 (stereo not given) Yes

Determine whether measured aggregation suppression score meets or exceeds 1 for CCOc1ccccc1OCC1CNCCO1 (stereo not given) Yes

Is aggregation suppression score at least 1? Consider `CCN(CC)CCOc1ccc2c(c1)C(=O)c1cc(OCCN(CC)CC)ccc1-2` Yes

// inclusive: aggregation suppression score at least 1? input: C[N+]1(C)CCCC(OC(=O)C(O)(c2ccccc2)c2ccccc2)C1 (stereo not given) Yes

Check if aggregation suppression score >= 1 (inclusive). Item: `COc1cc(Cc2cnc(N)nc2N)cc(OC)c1OC` Yes

Threshold query (aggregation suppression score >= 1) on `Cc1cc(C(C)(C)CC(C)(C)C)ccc1OCCOCC[N+](C)(C)Cc1ccccc1` No
